MEASURED ON: hSTING-R232 (Homo sapiens, UniProt Q86WV6, H232R)
Construct: recombinant mouse or human STING protein (aa140-379); 6xHis-SUMO elsewhere) (cleaved yes); made in house
Sequence (Q86WV6 140-379 H232R): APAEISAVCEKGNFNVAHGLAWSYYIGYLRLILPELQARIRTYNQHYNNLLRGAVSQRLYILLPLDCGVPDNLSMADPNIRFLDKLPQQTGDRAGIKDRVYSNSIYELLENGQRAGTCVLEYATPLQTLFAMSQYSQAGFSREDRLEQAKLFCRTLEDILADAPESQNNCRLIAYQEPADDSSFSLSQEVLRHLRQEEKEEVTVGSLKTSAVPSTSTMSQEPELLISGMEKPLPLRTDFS
ASSAY REMARKS: STING Differential Scanning Fluorimetry (DSF) assay, human
Assay type: binding
CONDITION DETAILS: human STING R232-WT, 5 μM protein

ENTRY SMILES	WT_DSF_hSWAT Tm Shift (° C.)
CN(C)c1c(Cl)ccc2c(=O)c3ccc(N(C)CC4CC(F)(F)C4)nc3n(CC(=O)O)c12	D (“D” > 7° C.)
CSc1c(Cl)ccc2c(=O)c3ccc(N(CC4CC4)CC4CC(F)(F)C4)nc3n(CC(=O)O)c12	D (“D” > 7° C.)
CCc1nc2c(cc1Cl)c(=O)c1ccc(Cl)c(N(C)C)c1n2CC(=O)O	C (“C” = 2-7° C.)
CSc1c(Cl)ccc2c(=O)c3ccc(Nc4ccccc4F)nc3n(CC(=O)O)c12	D (“D” > 7° C.)
CSc1c(Cl)ccc2c(=O)c3ccc(N(C)c4ccccc4)nc3n(CC(=O)O)c12	D (“D” > 7° C.)
COc1ccc2c(=O)c3ccc(Cl)c(N(C)C)c3n(CC(=O)O)c2n1	C (“C” = 2-7° C.)
COCCN(c1ccc2c(=O)c3ccc(Cl)c(SC)c3n(CC(=O)O)c2n1)C1CC1	D (“D” > 7° C.)
CCN(CCOC)c1nc2c(cc1Cl)c(=O)c1ccc(Cl)c(SC)c1n2CC(=O)O	D (“D” > 7° C.)
